Attribute: inhibition at 30 µM
tested on: MMP-13; assay: MMP-13 Production Inhibition Test; type: cell-based, human; settings: Homo sapiens; 30 μmol/L; SW1353 cells stimulated with IL-1β 10 ng/mL; MMP-13 in culture supernatant by ELISA 16 hours after stimulation; read-out: Inhibition rate (%) at 30 μmol/L
// return numeric value only (unit: %, not printed)

Use the examples below as a reference point.
O=C(Nc1cc(-c2ccccc2)ccc1C(=O)O)c1cccc(-c2ccccc2)c1 ... 99
O=C(Nc1cc(-c2ccccc2)ccc1C(=O)O)c1ccc(Cl)cc1 ... 96
CC(=O)c1cccc(C(=O)Nc2cc(-c3ccccc3)ccc2C(=O)O)c1 ... 91

Now look at this one.
Given item O=C(Nc1cc(-c2cccc(OC(F)(F)F)c2)ccc1C(=O)O)c1ccccc1 , the value recorded as its inhibition at 30 µM is 99

* * *

test system: MMP-13; assay: MMP-13 Production Inhibition Test; assay type: cell-based, human; details: Homo sapiens; 30 μmol/L; SW1353 cells stimulated with IL-1β 10 ng/mL; MMP-13 in culture supernatant by ELISA 16 hours after stimulation; read-out: Inhibition rate (%) at 30 μmol/L
measured.attribute: inhibition at 30 µM
Don't forget the unit after the value.

Cc1cccc(C(=O)Nc2cc(-c3ccc(F)cc3F)ccc2C(=O)O)c1C [Example 189] ... 96%

Given item O=C(Nc1cc(Oc2cc(F)cc(F)c2)ccc1C(=O)O)c1ccccc1 [Example 539] , the value recorded as its inhibition at 30 µM is 97%

Given item O=C(Nc1cc(-c2ccc(F)cc2F)ccc1C(=O)O)c1ccccc1 [Example 19] , the value recorded as its inhibition at 30 µM is 94%
